PROTOCOL_TEXT: Hydrogen peroxide (H2O2) scavenging
Type: biochemical
EXPERIMENTAL_CONTEXT: mean ± SE, n = 3
Assign label 1 whenever H2O2 scavenging IC50 does not fall below 50 µg/mL; assign label 0 whenever it does.

These recorded examples may help you get a feel for the data.
COMPOUND	CLASS
O=c1/c(=C\[C@H](O)[C@@H](O)[C@@H](O)[C@H](O)CO)sc2nc3sc4c(c3c(=O)n12)CCCC4 [8c]	label 1
O=c1/c(=C\[C@H](O)[C@@H](O)[C@H](O)[C@H](O)CO)sc2nc3sc4c(c3c(=O)n12)CCCC4 [8a]	label 1
O=c1/c(=C\[C@@H](O)[C@H](O)[C@H](O)CO)sc2nc3sc4c(c3c(=O)n12)CCC4 [7e]	label 1
O=c1/c(=C\[C@@H](O)[C@@H](O)[C@H](O)[C@H](O)CO)sc2nc3sc4c(c3c(=O)n12)CCCC4 [8b]	label 0
O=c1/c(=C\[C@@H](O)[C@H](O)[C@H](O)CO)sc2nc3sc4c(c3c(=O)n12)CCCC4 [8e]	label 0

Determine whether measured H2O2 scavenging IC50 meets or exceeds 50 µg/mL for O=c1/c(=C\[C@H](O)[C@@H](O)[C@@H](O)[C@H](O)CO)sc2nc3sc4c(c3c(=O)n12)CCC4 [7c] label 1

Determine whether measured H2O2 scavenging IC50 meets or exceeds 50 µg/mL for O=c1/c(=C\[C@H](O)[C@@H](O)[C@H](O)CO)sc2nc3sc4c(c3c(=O)n12)CCC4 [7d] label 1

Values compiled from paper PMC12652222.
